Where do the numbers come from? From paper PMC3817407.

TARGET DESC: T1, ECF15_436
T1 chain: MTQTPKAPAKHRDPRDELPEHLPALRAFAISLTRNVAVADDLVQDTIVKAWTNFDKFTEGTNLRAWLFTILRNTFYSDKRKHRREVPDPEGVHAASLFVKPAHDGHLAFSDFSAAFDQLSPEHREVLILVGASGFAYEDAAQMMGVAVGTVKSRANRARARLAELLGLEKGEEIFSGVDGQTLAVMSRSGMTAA
ENDPOINT NAME: fold repression
Lab note: jot the number down without any unit.

binder AS30_35 (protein) MDKRLQQLREEYKNVQIPKELDIIVEKALQQEPKKKRIVMWPTSAAIAAAILFTALVNINPDAAQAMSKIPVIGKIVKAITFIEIKEEKDQSSIDVKTPALSGLSNKELENSINEKYLKESQQLYKEFIQSTSKNKKGHLSIYSDYETVTDTPDLLSIRRNIETTQASSYTQSRYITIDKKNDILLTLKSLFKDERYIKVISQNIKEQMKQQMKEDPNKIYWLTDEDAEPFKTILPDQTFYITEDHKLVISFDEYEVAPGYMGVTEFTIPTGVISNLLVGERYIR , fold repression observed: 1.98

binder AS14_1324 (protein) MSGSRPEPEGHLAEQHLGDRLSALVDGELGHDARERVLAHVATCPKCKAEVDAQRRLKNVFAEAAPPAPSESFLARLQGLPGGGDSDGGGSPFSGLPGGFGASAASGVFGPRRDERFEFDYVPAGSHTPVLPSATSGRGFRIHEVGRHESDRSASRGLRFAFAAAGAVSLAAIALGGVTLGTPDTTTEARGSGSGSNVTPLRTPGSAAATGSESQRRRTAGPLLGQGQRALGDLPVASTTASAPLLPGMPAPAGGDARQQAVRALTTPVTAGAAAMSPLIRPLEAVPPLSLSSWSAAPEVRPPGLLAAPDPAPSPYPAASPAASSSPLR , fold repression observed: 6.5

binder AS03_1244 (protein) MKQFDPDVNIRPKEDSIRHYSVPDDYFASFTDKLMAQIPAVKEENTVVVPSVALWPKLRPLLYLAASFLLMIGMFKAFSLFGVGSDTGRTTSTSAGLVALDHGDTRWSEDTDYRDFLHDNCAETVSDEWVLTDFSE , fold repression observed: 2.04
